- System: Crude diglycosidase
- test.protocol: Examination of pH in the conversion into isoflavone aglycons by diglycosidase using soybean materials
- Format: biochemical, Penicillium multicolor IAM7153
- Design: concentration or dose not given beside the values
- protocol.conditions: pH7.8; heat treatment of enzyme: no; reaction time 1 h
outcome.measure: Decomposition efficiency of genistin family in defatted soybean (%)

item.smiles | measurement
O=c1c(-c2ccc(O)cc2)coc2cc(O[C@@H]3O[C@H](CO)[C@@H](O)[C@H](O)[C@H]3O)cc(O)c12 | 15.7
CC(=O)OC[C@H]1O[C@@H](Oc2cc(O)c3c(=O)c(-c4ccc(O)cc4)coc3c2)[C@H](O)[C@@H](O)[C@@H]1O | 1.0
O=c1c(-c2ccc(O)cc2)coc2cc(O)cc(O)c12 | 36.7
O=C(O)CC(=O)OC[C@H]1O[C@@H](Oc2cc(O)c3c(=O)c(-c4ccc(O)cc4)coc3c2)[C@H](O)[C@@H](O)[C@@H]1O | 46.6

----------
Reported values of Decomposition efficiency of glycitin family in soymilk for individual entries
- Tested on: Crude diglycosidase
- test.protocol: Examination of temperature in the conversion into isoflavone aglycons by diglycosidase using soybean materials
- Format: biochemical, Penicillium multicolor IAM7153
- protocol.conditions: 80 °C; heat treatment of enzyme: no; 6 h
outcome.measure: Decomposition efficiency of glycitin family in soymilk (%)

item.smiles | test.target | measurement
COc1cc2c(=O)c(-c3ccc(O)cc3)coc2cc1O[C@@H]1O[C@H](CO)[C@@H](O)[C@H](O)[C@H]1O | Crude diglycosidase | 44.2
COc1cc2c(=O)c(-c3ccc(O)cc3)coc2cc1O[C@@H]1O[C@H](COC(=O)CC(=O)O)[C@@H](O)[C@H](O)[C@H]1O | Crude diglycosidase | 21.3
COc1cc2c(=O)c(-c3ccc(O)cc3)coc2cc1O | Crude diglycosidase | 34.4

----------
- System: Crude diglycosidase
- test.protocol: Examination of pH in the conversion into isoflavone aglycons by diglycosidase using soybean materials
- Type: biochemical, Penicillium multicolor IAM7153
- Parameters: concentration or dose not given beside the values
- protocol.conditions: pH4.8; heat treatment of enzyme: no; reaction time 0 h
outcome.measure: Decomposition efficiency of daidzin family in defatted soybean (%)

compound | display.unit | measurement
O=C(O)CC(=O)OC[C@H]1O[C@@H](Oc2ccc3c(=O)c(-c4ccc(O)cc4)coc3c2)[C@H](O)[C@@H](O)[C@@H]1O [malonyldaidzin, 6″-O-malonyldaidzin] | % | 40.7
O=c1c(-c2ccc(O)cc2)coc2cc(O)ccc12 [daidzein] | % | 15.7
O=c1c(-c2ccc(O)cc2)coc2cc(O[C@@H]3O[C@H](CO)[C@@H](O)[C@H](O)[C@H]3O)ccc12 [daidzin] | % | 43.5

----------
- Test system: Crude diglycosidase
- test.protocol: Examination of substrate concentration in the conversion into isoflavone aglycons by diglycosidase using soybean materials;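 further: percent of the isoflavone family total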
- Assay type: biochemical, Penicillium multicolor IAM7153
- protocol.conditions: concentrated soybean protein, substrate concentration 5%, heat treatment of enzyme yes, reaction time 6 h
outcome.measure: Decomposition efficiency: ratio of each glycoside/aglycon within its isoflavone family

item.smiles | measurement
CC(=O)OC[C@H]1O[C@@H](Oc2cc(O)c3c(=O)c(-c4ccc(O)cc4)coc3c2)[C@H](O)[C@@H](O)[C@@H]1O | 41.7%
COc1cc2c(=O)c(-c3ccc(O)cc3)coc2cc1O[C@@H]1O[C@H](COC(=O)CC(=O)O)[C@@H](O)[C@H](O)[C@H]1O | 0.4%
O=c1c(-c2ccc(O)cc2)coc2cc(O[C@@H]3O[C@H](CO)[C@@H](O)[C@H](O)[C@H]3O)ccc12 | 53.5%
COc1cc2c(=O)c(-c3ccc(O)cc3)coc2cc1O[C@@H]1O[C@H](CO)[C@@H](O)[C@H](O)[C@H]1O | 54.0%
COc1cc2c(=O)c(-c3ccc(O)cc3)coc2cc1O[C@@H]1O[C@H](COC(C)=O)[C@@H](O)[C@H](O)[C@H]1O | 34.4%
